# experimentalTarget: T1, human IL-18BP (human, UniProt O95998 31-194)
# T1 construct: UniProt printed as 095998; also called hIL-18BP
# T1 sequence: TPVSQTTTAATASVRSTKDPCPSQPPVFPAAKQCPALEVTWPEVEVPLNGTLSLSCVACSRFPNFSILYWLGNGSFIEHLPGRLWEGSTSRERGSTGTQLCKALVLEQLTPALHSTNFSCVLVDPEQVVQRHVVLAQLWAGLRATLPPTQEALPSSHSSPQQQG
# protocolSummary: BLI, apparent KD
pKd: −log10 of the molar value.
Reported pKd values are given for each entry in this list.

binder	pKd
SA301a HC-S98P (antibody, name in Kabat numbering, V domains shown, IgG1 kappa) VH: QVQLQESGPGLVKPSQTLSLTCTVSGYSITSDYNSHWIRQPPGKGLEWIGYIHYSGSTNYNPSLKSRVTISRDTSKNQFSLKLSSVTAADTAVYYCARNYGPIYVNYFDYWGQGTLVTVSS VL: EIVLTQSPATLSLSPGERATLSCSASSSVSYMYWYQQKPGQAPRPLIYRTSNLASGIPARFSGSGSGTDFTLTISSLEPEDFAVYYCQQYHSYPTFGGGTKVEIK	9.26
SA301a HC-S98Q (antibody, name in Kabat numbering, V domains shown, IgG1 kappa) VH: QVQLQESGPGLVKPSQTLSLTCTVSGYSITSDYNSHWIRQPPGKGLEWIGYIHYSGSTNYNPSLKSRVTISRDTSKNQFSLKLSSVTAADTAVYYCARNYGQIYVNYFDYWGQGTLVTVSS VL: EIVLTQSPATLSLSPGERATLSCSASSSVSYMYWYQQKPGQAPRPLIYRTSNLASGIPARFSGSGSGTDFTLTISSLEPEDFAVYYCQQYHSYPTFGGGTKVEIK	7.91
SA301a HC-S98K (antibody, name in Kabat numbering, V domains shown, IgG1 kappa) VH: QVQLQESGPGLVKPSQTLSLTCTVSGYSITSDYNSHWIRQPPGKGLEWIGYIHYSGSTNYNPSLKSRVTISRDTSKNQFSLKLSSVTAADTAVYYCARNYGKIYVNYFDYWGQGTLVTVSS VL: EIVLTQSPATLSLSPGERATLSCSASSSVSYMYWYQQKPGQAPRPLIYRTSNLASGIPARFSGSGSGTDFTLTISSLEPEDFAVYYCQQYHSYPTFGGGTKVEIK	8.27
SA301a HC-G97H (antibody, name in Kabat numbering, V domains shown, IgG1 kappa) VH: QVQLQESGPGLVKPSQTLSLTCTVSGYSITSDYNSHWIRQPPGKGLEWIGYIHYSGSTNYNPSLKSRVTISRDTSKNQFSLKLSSVTAADTAVYYCARNYHSIYVNYFDYWGQGTLVTVSS VL: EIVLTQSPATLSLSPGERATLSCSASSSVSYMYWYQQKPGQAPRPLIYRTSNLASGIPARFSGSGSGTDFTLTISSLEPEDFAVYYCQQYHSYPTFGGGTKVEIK	8.80
SA301a HC-N95R (antibody, name in Kabat numbering, V domains shown, IgG1 kappa) VH: QVQLQESGPGLVKPSQTLSLTCTVSGYSITSDYNSHWIRQPPGKGLEWIGYIHYSGSTNYNPSLKSRVTISRDTSKNQFSLKLSSVTAADTAVYYCARRYGSIYVNYFDYWGQGTLVTVSS VL: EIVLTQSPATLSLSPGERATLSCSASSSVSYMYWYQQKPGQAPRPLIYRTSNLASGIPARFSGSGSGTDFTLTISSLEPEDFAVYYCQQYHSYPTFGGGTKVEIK	10.70

Reference source: patent US20250368745A1
